Data provenance: patent US20080287398A1

Biological target: canine TRPM8 (Canis lupus familiaris)
Construct: expressed in transfected cells
Assay: In vitro canine TRPM8 functional assay (Ca2+-sensitive dye, FLIPR/FDSS, icilin activation)
Type: cell-based
Details: HEK293 cells expressing canine TRPM8, icilin activation; eight-point dose-response; read-out: IC50
Each record is given 1 if its reported IC50 is strictly below 200 nM. Records at or above 200 nM are given -1.

• CCC(C)P(=O)(C(C)CC)C(Cc1ccc(F)c(F)c1)c1sc2ccccc2c1Br (stereo not shown) = -1
• CCOP(=O)(OCC)C(Cc1cccc(Cl)c1F)c1sc2ccccc2c1C (stereo not shown) = 1
• CC(C)OP(=O)(OC(C)C)C(Cc1ccc(F)c(C(F)(F)F)c1)c1c(Br)c2ccccc2n1C (stereo not shown) = 1
• CCOP(=O)(OCC)C(Cc1c(Cl)ccc(C)c1F)c1sc2ccccc2c1C (stereo not shown) = -1
• CCOP(=O)(OCC)C(Cc1ccccc1F)c1csc2ccccc12 (stereo not shown) = -1
• CC(C)OP(=O)(OC(C)C)C(Cc1cccc(C(F)(F)F)c1Cl)c1sc2ccccc2c1Br (stereo not shown) = 1
• CCOP(=O)(OCC)C(Cc1cccc(C(=O)OC)c1)c1sc2ccccc2c1Br (stereo not shown) = 1
• CC(C)OP(=O)(OC(C)C)C(Cc1ccc(F)c(F)c1)c1oc2ccccc2c1Br (stereo not shown) = 1
• CCOP(=O)(OCC)C(Cc1cccc(-n2cccc2)c1)c1sc2ccccc2c1Br (stereo not shown) = 1
• CCOP(=O)(OCC)C(Cc1cc(C(F)(F)F)ccc1F)c1sc2ccccc2c1Br (racemic) = 1
• CCOP(=O)(OCC)C(Cc1ccc(F)c(F)c1)c1sc2ccccc2c1-c1ccc(F)cc1 (racemic) = -1
• CC(C)OP(=O)(OC(C)C)C(Cc1cc(F)cc(F)c1)c1sc2ccccc2c1Br (stereo not shown) = 1
• CC(C)CCOP(=O)(OCCC(C)C)C(Cc1ccc(F)c(F)c1)c1sc2ccccc2c1Br (racemic) = 1
• CCOP(=O)(OCC)C(Cc1ccc(F)cc1Cl)c1cc2ccccc2s1 (stereo not shown) = -1
• CC(C)OP(=O)(OC(C)C)[C@H](Cc1ccc(F)c(C(F)(F)F)c1)c1sc2ccccc2c1Br = 1
• CC(C)OP(=O)(OC(C)C)C(Cc1cc(C(F)(F)F)cc(Cl)c1F)c1sc2ccccc2c1Br (stereo not shown) = 1
• CCOP(=O)(OCC)C(Cc1cc(Cl)ccc1F)c1sc2ccccc2c1Br (racemic) = 1
• CCOP(=O)(OCC)C(Cc1ccc(OC(F)(F)F)c(Cl)c1)c1sc2ccccc2c1Cl (stereo not shown) = 1
• CCOP(=O)(OCC)C(Cc1ccc2ccccc2c1)c1cc2ccccc2s1 (stereo not shown) = -1
• CCOP(=O)(OCC)C(Cc1cccc(Br)c1)c1sc2ccccc2c1Cl (stereo not shown) = 1
• CCOP(=O)(OCC)C(Cc1ccccc1OC(F)(F)F)c1sc2ccccc2c1C (stereo not shown) = -1
• CC(C)OP(=O)(OC(C)C)C(Cc1cc(C(F)(F)F)cc(Cl)c1F)c1cc2ccccc2s1 (stereo not shown) = -1
• CCOP(=O)(OCC)C(Cc1cccc(Cl)c1)c1sc2ccccc2c1Cl (racemic) = 1
• CCC(C)P(=O)(C(C)CC)C(Cc1ccc(F)c(F)c1)c1oc2ccccc2c1Br (stereo not shown) = -1
• CC(C)OP(=O)(OC(C)C)C(Cc1c(Cl)cccc1Cl)c1sc2ccccc2c1Cl (stereo not shown) = 1
• CCOP(=O)(OCC)C(Cc1ccccc1C)c1cc2ccccc2s1 (stereo not shown) = -1
• CCOP(=O)(OCC)C(Cc1ccccc1Cl)c1sc2ccccc2c1Cl (stereo not shown) = 1
• CCOP(=O)(OCC)C(Cc1c(F)c(F)c(OC)c(F)c1F)c1sc2ccccc2c1Br (racemic) = 1
• CCOP(=O)(OCC)C(Cc1ccc(SC(F)(F)F)cc1)c1sc2ccccc2c1Br (racemic) = 1
• CCOP(=O)(OCC)C(Cc1ccc(OC)c(F)c1)c1sc2ccccc2c1Br (racemic) = 1
• CC(C)OP(=O)(OC(C)C)C(Cc1ccccc1C(F)(F)F)c1sc2ccccc2c1Cl (racemic) = 1
• CCOP(=O)(OCC)C(Cc1cc(O)c(Cl)cc1F)c1sc2ccccc2c1Br (racemic) = 1
• CC(C)OP(=O)(OC(C)C)C(Cc1cccc(OC(F)(F)F)c1)c1sc2ccccc2c1Cl (racemic) = 1
• CCOP(=O)(OCC)C(Cc1ccc(F)c(C(F)(F)F)c1)c1sc2cccc(F)c2c1Br (racemic) = 1

###

Target: canine TRPM8 (Canis lupus familiaris, UniProt Q1A7N1)
Construct: expressed in transfected cells
Sequence (Q1A7N1 1-1104): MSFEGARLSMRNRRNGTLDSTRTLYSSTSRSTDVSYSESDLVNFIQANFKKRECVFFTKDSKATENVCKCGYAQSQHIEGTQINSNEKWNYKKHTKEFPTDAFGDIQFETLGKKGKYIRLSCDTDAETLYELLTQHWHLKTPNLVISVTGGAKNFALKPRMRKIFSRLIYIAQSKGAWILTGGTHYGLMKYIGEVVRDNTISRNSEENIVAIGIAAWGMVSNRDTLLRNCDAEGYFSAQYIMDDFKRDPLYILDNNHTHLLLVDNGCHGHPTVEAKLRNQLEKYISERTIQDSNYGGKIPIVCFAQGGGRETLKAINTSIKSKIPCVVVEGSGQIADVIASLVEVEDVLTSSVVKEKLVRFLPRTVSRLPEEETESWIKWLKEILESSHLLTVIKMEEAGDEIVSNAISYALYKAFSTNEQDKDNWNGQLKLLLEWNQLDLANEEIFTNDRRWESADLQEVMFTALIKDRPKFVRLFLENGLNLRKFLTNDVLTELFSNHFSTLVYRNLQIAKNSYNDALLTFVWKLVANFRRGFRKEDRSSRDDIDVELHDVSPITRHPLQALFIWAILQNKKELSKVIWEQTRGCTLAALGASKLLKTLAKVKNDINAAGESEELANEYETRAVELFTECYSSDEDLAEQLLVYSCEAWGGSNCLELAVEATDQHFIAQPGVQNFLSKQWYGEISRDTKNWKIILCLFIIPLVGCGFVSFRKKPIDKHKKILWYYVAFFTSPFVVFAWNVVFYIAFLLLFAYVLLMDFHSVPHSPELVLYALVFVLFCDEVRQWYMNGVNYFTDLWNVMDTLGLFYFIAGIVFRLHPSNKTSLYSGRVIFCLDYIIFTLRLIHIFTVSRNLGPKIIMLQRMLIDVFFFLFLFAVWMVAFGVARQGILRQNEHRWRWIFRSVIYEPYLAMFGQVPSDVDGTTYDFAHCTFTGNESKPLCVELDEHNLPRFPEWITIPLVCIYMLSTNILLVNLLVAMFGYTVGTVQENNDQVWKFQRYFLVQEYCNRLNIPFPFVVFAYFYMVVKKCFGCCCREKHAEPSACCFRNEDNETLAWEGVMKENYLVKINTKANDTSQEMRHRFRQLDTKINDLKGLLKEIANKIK
Experiment: In vitro canine TRPM8 functional assay (Ca2+-sensitive dye, FLIPR/FDSS, icilin activation)
Type: cell-based
Conditions: HEK293 cells expressing canine TRPM8, icilin activation; eight-point dose-response; read-out: IC50
IC50 values by entry
observation.type: IC50 (nM)

- CCOP(=O)(OCC)C(Cc1c(Cl)cccc1Cl)c1sc2ccccc2c1C (centres unmarked): 230
- CCOP(=O)(OCC)C(Cc1ccccc1C(F)(F)F)c1sc2ccccc2c1Cl (racemic): 291
- CC(C)OP(=O)(OC(C)C)C(Cc1ccc(SC(F)(F)F)cc1)c1sc2ccccc2c1Cl (racemic): 28
- CCOP(=O)(OCC)C(Cc1cc(F)cc(F)c1Cl)c1sc2ccccc2c1C (centres unmarked): 110
- CCOP(=O)(OCC)C(Cc1cccc(C(F)(F)F)c1Cl)c1sc2ccccc2c1Br (racemic): 120
- CCOP(=O)(OCC)C(Cc1cccc(Cl)c1F)c1sc2ccccc2c1Br (racemic): 67
- CCOP(=O)(OCC)C(Cc1ccc(Br)cc1)c1cc2ccccc2s1 (centres unmarked): 350
- CCOP(=O)(OCC)C(Cc1ccc(C(F)(F)F)cc1)c1sc2ccccc2c1Br (racemic): 27

###

Target: canine TRPM8 (Canis lupus familiaris, UniProt Q1A7N1)
Construct: expressed in transfected cells
Test: In vitro canine TRPM8 functional assay (Ca2+-sensitive dye, FLIPR/FDSS, icilin activation)
Assay type: cell-based
Conditions: HEK293 cells expressing canine TRPM8, icilin activation; eight-point dose-response; read-out: IC50
Class boundaries, taken from values of IC50, are as follows: group 1 = under 90 nM, group 2 = from 90 nM up to 200 nM, group 3 = 200 nM and over

- CC(C)OP(=O)(OC(C)C)C(Cc1cc(C(F)(F)F)ccc1Cl)c1sc2ccccc2c1Cl (centres unmarked): group 3
- COc1cc(CC(c2sc3ccccc3c2Br)P(=O)(OC(C)C)OC(C)C)c(F)cc1Cl (racemic): group 1
- CC(C)OP(=O)(OC(C)C)C(Cc1cc(F)cc(F)c1)c1cc2ccccc2s1 (centres unmarked): group 3
- Cc1c(C(OCc2ccc(F)c(F)c2)P(=O)(CC(C)C)CC(C)C)sc2ccccc12 (centres unmarked): group 1
- CCOP(=O)(OCC)C(Cc1cccc(Cl)c1F)c1sc2ccccc2c1Cl (centres unmarked): group 2
- CCOP(=O)(OCC)C(Cc1ccc(C(F)(F)F)cc1F)c1sc2ccccc2c1Cl (racemic): group 2
- CCOP(=O)(OCC)C(Cc1cc2c(cc1Cl)OCO2)c1sc2ccccc2c1C (centres unmarked): group 3
- CCOP(=O)(OCC)C(Cc1cc(F)cc(Cl)c1)c1sc2ccccc2c1Br (centres unmarked): group 1
- CCOP(=O)(OCC)C(Cc1c(F)c(F)c(O)c(F)c1F)c1sc2ccccc2c1Br (racemic): group 2
- CCOP(=O)(OCC)C(Cc1ccc(Cl)cc1)c1sc2ccccc2c1Cl (racemic): group 2
- CCOP(=O)(OCC)C(Cc1ccc(SC)cc1)c1sc2ccccc2c1Br (racemic): group 2
- CCOP(=O)(OCC)C(Cc1cc(C(F)(F)F)ccc1F)c1sc2ccccc2c1Cl (racemic): group 2
- CCOP(=O)(OCC)C(Cc1cc(F)c(Cl)cc1Cl)c1sc2ccccc2c1C (centres unmarked): group 3
- CC(C)OP(=O)(OC(C)C)C(Cc1ccccc1)c1sc2ccccc2c1Cl (centres unmarked): group 1
- CSc1ccc(CC(c2sc3ccccc3c2Br)P(=O)(OC(C)C)OC(C)C)cc1 (centres unmarked): group 1
- CC(C)OP(=O)(OC(C)C)C(Cc1ccc(F)c(C(F)(F)F)c1)c1sc2ccccc2c1Br (centres unmarked): group 1
- CCOP(=O)(OCC)C(Cc1ccccc1C(F)(F)F)c1sc2ccccc2c1C (centres unmarked): group 3

###

Molecular target: canine TRPM8 (Canis lupus familiaris)
Construct: expressed in transfected cells
Assay: In vitro canine TRPM8 functional assay (Ca2+-sensitive dye, FLIPR/FDSS, icilin activation)
Type: cell-based
Conditions: 0.5 μM compound; HEK293 cells expressing canine TRPM8, icilin activation
Listed next: entries and their corresponding % I (0.5 μM).
observation.type: % I (0.5 μM) (%)

• CCOP(=O)(OCC)C(Cc1ccc(O)c(C(F)(F)F)c1)c1sc2ccccc2c1Br (racemic) = 70
• CCOP(=O)(OCC)C(Cc1ccc(OC(F)(F)F)c(Cl)c1)c1sc2ccccc2c1Br (racemic) = 103
• CC(C)OP(=O)(OC(C)C)C(Cc1ccc(SC(F)(F)F)cc1)c1sc2ccccc2c1Cl (racemic) = 102
• CCOP(=O)(OCC)C(Cc1cc(C(F)(F)F)cc(C(F)(F)F)c1)c1sc2ccccc2c1Br (centres unmarked) = 102
• CC(C)OP(=O)(OC(C)C)C(Cc1ccc(C(F)(F)F)cc1)c1sc2ccccc2c1Br (centres unmarked) = 102
• CCOP(=O)(OCC)C(Cc1ccc(S(=O)(=O)C(F)(F)F)cc1)c1sc2ccccc2c1Br (centres unmarked) = 103
• CC(C)OP(=O)(OC(C)C)C(Cc1cccc(O)c1F)c1sc2ccccc2c1Br (racemic) = 97
• CC(C)OP(=O)(OC(C)C)C(Cc1ccc(Cl)cc1)c1sc2ccccc2c1Br (racemic) = 103
